// provenance: patent US11407748B2

# ASSAYED_TARGET: hGluR1 flip (Homo sapiens)
# Construct: expressed in transfected cells; host or cells: CHO-K1
# EXPERIMENTAL_PROTOCOL: AMPA receptor function-enhancing activity using calcium influx as index
# Type: cell-based
# EXPERIMENTAL_PARAMETERS: test compound 30 μM with 3 mM glutamic acid; CHO-K1/GluR1 flip/stargazin-expressing cells; 100% = 3 mM glutamic acid + 300 μM cyclothiazide, 0% = 3 mM glutamic acid alone
Recorded measurements of hGluR1 flip/30 μM (%), one per entry

COMPOUND	RESULT_UNITS	hGluR1 flip/30 μM (%)
O=C(c1ccc(-c2cccn3c(=O)cc(C(F)(F)F)nc23)cc1)N1CCC(O)(C(F)(F)F)C1 (stereo not shown) [Example 6]	%	88.7
Cc1c(C(F)(F)F)nc2c(-c3ccc(C(=O)N4CCOC(C(F)F)C4)cc3)cccn2c1=O (stereo not shown) [Example 106]	%	85.9
O=C(c1ccc(-c2cccn3c(=O)c(Br)c(C(F)(F)F)nc23)cc1)N1CCOC(C(F)F)C1 (stereo not shown) [Example 113]	%	78.7
Cc1c(C(F)(F)F)nc2c(-c3ccc(C(=O)N4CCOC(C(F)F)C4)cc3)cccn2c1=O (stereo not shown) [Example 107]	%	86
O=C(c1ccc(-c2cccn3c(=O)c(Br)c(C(F)(F)F)nc23)cc1)N1CCOC(C(F)F)C1 (stereo not shown) [Example 114]	%	77.2
O=C(c1ccc(-c2cccn3c(=O)c(Br)c(C(F)(F)F)nc23)cc1)N1CCOC2CC21 (stereo not shown)	%	70.9
O=C(c1ccc(-c2cccn3c(=O)cc(C(F)(F)F)nc23)cc1)N1CCC(O)(C(F)(F)F)C1 (stereo not shown) [Example 16]	%	88.3

* * *

# ASSAYED_TARGET: hGluR1 flip (Homo sapiens, UniProt P42261)
# Construct: expressed in transfected cells; host or cells: CHO-K1
# Sequence (P42261 19-906 isoform P42261-2 limits assumed): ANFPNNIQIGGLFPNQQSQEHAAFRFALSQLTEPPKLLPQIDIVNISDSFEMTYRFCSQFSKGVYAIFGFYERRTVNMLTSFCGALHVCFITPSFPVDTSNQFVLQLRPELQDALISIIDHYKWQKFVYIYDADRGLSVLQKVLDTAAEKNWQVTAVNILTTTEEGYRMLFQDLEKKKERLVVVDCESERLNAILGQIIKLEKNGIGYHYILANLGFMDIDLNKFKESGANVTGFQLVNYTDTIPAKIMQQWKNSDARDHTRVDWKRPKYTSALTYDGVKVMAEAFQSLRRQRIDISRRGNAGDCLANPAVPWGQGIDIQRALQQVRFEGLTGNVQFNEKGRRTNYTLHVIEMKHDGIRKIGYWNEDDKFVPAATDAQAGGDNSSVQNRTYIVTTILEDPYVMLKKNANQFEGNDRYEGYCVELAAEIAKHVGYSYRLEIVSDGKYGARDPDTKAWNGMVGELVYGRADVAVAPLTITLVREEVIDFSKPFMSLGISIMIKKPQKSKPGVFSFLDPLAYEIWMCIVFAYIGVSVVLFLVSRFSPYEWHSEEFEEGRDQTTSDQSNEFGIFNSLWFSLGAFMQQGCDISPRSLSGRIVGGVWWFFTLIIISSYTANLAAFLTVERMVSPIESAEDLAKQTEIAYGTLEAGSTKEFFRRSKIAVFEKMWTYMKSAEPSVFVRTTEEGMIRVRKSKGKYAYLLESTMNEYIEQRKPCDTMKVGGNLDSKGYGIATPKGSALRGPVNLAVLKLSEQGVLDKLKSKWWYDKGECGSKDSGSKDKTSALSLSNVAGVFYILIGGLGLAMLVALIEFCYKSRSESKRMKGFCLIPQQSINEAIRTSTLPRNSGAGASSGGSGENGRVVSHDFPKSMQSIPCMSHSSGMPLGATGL
# Sequence (Q9Y698 whole entry partner): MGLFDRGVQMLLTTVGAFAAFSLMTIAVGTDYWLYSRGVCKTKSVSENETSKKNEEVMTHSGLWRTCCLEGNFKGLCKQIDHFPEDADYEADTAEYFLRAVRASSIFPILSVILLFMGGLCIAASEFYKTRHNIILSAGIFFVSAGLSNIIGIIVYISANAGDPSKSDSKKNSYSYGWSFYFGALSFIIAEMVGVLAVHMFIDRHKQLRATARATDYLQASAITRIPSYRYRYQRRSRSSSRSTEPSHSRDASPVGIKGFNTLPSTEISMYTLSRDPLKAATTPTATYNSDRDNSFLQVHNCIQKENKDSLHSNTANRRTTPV
# EXPERIMENTAL_PROTOCOL: AMPA receptor function-enhancing activity using calcium influx as index
# Assay type: cell-based
# EXPERIMENTAL_PARAMETERS: test compound 30 μM with 3 mM glutamic acid; CHO-K1/GluR1 flip/stargazin-expressing cells; 100% = 3 mM glutamic acid + 300 μM cyclothiazide, 0% = 3 mM glutamic acid alone
Recorded measurements of activation at 30 µM, one per entry

COMPOUND	RESULT_UNITS	activation at 30 µM
O=C(NCC(F)F)c1ccc(-c2cccn3c(=O)cc(C(F)(F)F)nc23)cc1	%	74.9
N#CC1CCN(C(=O)c2ccc(-c3cccn4c(=O)c(Br)c(C(F)(F)F)nc34)cc2)C1 (stereo not drawn)	%	71.5
O=C(N[C@H]1CCCOC1)c1ccc(-c2cccn3c(=O)c(Br)c(C(F)(F)F)nc23)cc1	%	78.9
CN(C(=O)c1ccc(-c2cccn3c(=O)c(Br)c(C(F)(F)F)nc23)cc1F)C1CCOCC1	%	102
O=C(c1ccc(-c2cccn3c(=O)c(Br)c(C(F)(F)F)nc23)cc1)N1CCOC2CC21 (stereo not drawn)	%	74.7
C[C@H]1CN(C(=O)c2ccc(-c3cccn4c(=O)c(Br)c(C(F)(F)F)nc34)cc2)CCO1	%	88.1

* * *

# ASSAYED_TARGET: hGluR1 flip (Homo sapiens, UniProt P42261)
# Construct: expressed in transfected cells; host or cells: CHO-K1
# EXPERIMENTAL_PROTOCOL: AMPA receptor function-enhancing activity using calcium influx as index
# Assay type: cell-based
# EXPERIMENTAL_PARAMETERS: test compound 30 μM with 3 mM glutamic acid; CHO-K1/GluR1 flip/stargazin-expressing cells; 100% = 3 mM glutamic acid + 300 μM cyclothiazide, 0% = 3 mM glutamic acid alone

COMPOUND	activation at 30 µM / %
O=C(NC1CCOCC1)c1ccc(-c2cccn3c(=O)c(Cl)c(C(F)(F)F)nc23)cc1 [Example 131]	110
O=C(N[C@H]1CCCOC1)c1ccc(-c2cccn3c(=O)cc(C(F)(F)F)nc23)cc1 [Example 122]	71.4
O=C(c1ccc(-c2cccn3c(=O)c(Br)c(C(F)(F)F)nc23)cc1)N1CCOC(C(F)F)C1 (centres unmarked) [Example 103]	88.6
Cc1c(C(F)(F)F)nc2c(-c3ccc(C(=O)NC4CCOCC4)c(F)c3)cccn2c1=O [Example 85]	109
CN(C(=O)c1ccc(-c2cccn3c(=O)c(Br)c(C(F)(F)F)nc23)cc1F)C1CC1 [Example 94]	94.4
N#CC1CCCN(C(=O)c2ccc(-c3cccn4c(=O)c(Cl)c(C(F)(F)F)nc34)cc2)C1 (centres unmarked) [Example 38]	99.3
Cc1c(C(F)(F)F)nc2c(-c3ccc(C(=O)N4CCCOCC4)c(F)c3)cccn2c1=O [Example 76]	93.3
O=C(c1ccc(-c2cccn3c(=O)cc(C(F)(F)F)nc23)cc1F)N1CCOCC1 [Example 44]	73.8
COCCNC(=O)c1ccc(-c2cccn3c(=O)c(Br)c(C(F)(F)F)nc23)cc1F [Example 72]	76.4
Cc1c(C(F)(F)F)nc2c(-c3ccc(C(=O)N4CCOCC4)c(F)c3)cccn2c1=O [Example 45]	82.6
O=C(N[C@@H]1CCCOC1)c1ccc(-c2cccn3c(=O)c(Br)c(C(F)(F)F)nc23)cc1F [Example 111]	91
Cc1c(C(F)(F)F)nc2c(-c3ccc(C(=O)N4CCCOCC4)cc3)cccn2c1=O [Example 69]	79.9
CN(CC1CC1)C(=O)c1ccc(-c2cccn3c(=O)c(Br)c(C(F)(F)F)nc23)cc1F [Example 96]	97.2
Cc1c(C(F)(F)F)nc2c(-c3ccc(C(=O)N[C@H]4CCCOC4)cc3)cccn2c1=O [Example 93]	88.2
COC1CCN(C(=O)c2ccc(-c3cccn4c(=O)cc(C(F)(F)F)nc34)cc2F)CC1 [Example 89]	82.8
O=C(c1ccc(-c2cccn3c(=O)cc(C(F)(F)F)nc23)cc1)N1CCC(O)(C(F)(F)F)C1 (centres unmarked) [Example 15]	79.9
CCN(C(=O)c1ccc(-c2cccn3c(=O)c(Br)c(C(F)(F)F)nc23)cc1F)C1CC1 [Example 95]	83.2
O=C(c1ccc(-c2cccn3c(=O)c(Br)c(C(F)(F)F)nc23)cc1F)N1CCCOCC1 [Example 75]	99.1
O=C(c1ccc(-c2cccn3c(=O)c(Br)c(C(F)(F)F)nc23)cc1F)N1CCc2cccnc21 [Example 79]	79.6
O=C(NC1CCOCC1)c1ccc(-c2cccn3c(=O)cc(C(F)(F)F)nc23)cc1 [Example 123]	83.2
COC1CCN(C(=O)c2ccc(-c3cccn4c(=O)c(Br)c(C(F)(F)F)nc34)cc2F)CC1 [Example 88]	90.3
Cc1c(C(F)(F)F)nc2c(-c3ccc(C(=O)N4CC(F)(F)C4)cc3)cccn2c1=O [Example 24]	76.9
O=C(NCC(F)(F)F)c1ccc(-c2cccn3c(=O)c(Cl)c(C(F)(F)F)nc23)cc1 [Example 35]	79.8
O=C(NCC1CC1)c1ccc(-c2cccn3c(=O)c(Br)c(C(F)(F)F)nc23)cc1F [Example 70]	71.4
O=C(c1ccc(-c2cccn3c(=O)c(Br)c(C(F)(F)F)nc23)cc1)N1CCCC1 [Example 62]	76.9
CN(C(=O)c1ccc(-c2cccn3c(=O)cc(C(F)(F)F)nc23)cc1F)C1CCOCC1 [Example 82]	81.4
C[C@H]1CN(C(=O)c2ccc(-c3cccn4c(=O)c(Br)c(C(F)(F)F)nc34)cc2F)CCO1 [Example 73]	87.9
COC1CCN(C(=O)c2ccc(-c3cccn4c(=O)c(C)c(C(F)(F)F)nc34)cc2F)CC1 [Example 87]	101
O=C(NC1CCOCC1)c1ccc(-c2cccn3c(=O)c(Br)c(C(F)(F)F)nc23)cc1 [Example 57]	78.7
Cc1c(C(F)(F)F)nc2c(-c3ccc(C(=O)N(C)CCC#N)cc3)cccn2c1=O [Example 100]	89.2
O=C(N[C@H]1CCCOC1)c1ccc(-c2cccn3c(=O)c(Br)c(C(F)(F)F)nc23)cc1F [Example 110]	86.8
O=C(c1ccc(-c2cccn3c(=O)c(Cl)c(C(F)(F)F)nc23)cc1)N1CCOCC1 [Example 17]	95.2
